// data source = paper PMC5131891

- target-entity: ComR from Streptococcus thermophilus LMD-9 (ComR-StreptagII, wild type) (Streptococcus thermophilus LMD-9)
- procedure-details: ITC; peptide 500 μM in the syringe, ComR 50 μM in the cell; 20°C; 20 mM Tris-HCl pH 8.0, 150 mM NaCl, 1 mM EDTA; one-binding-site model; apparent KD (peptide binding and dimerization not told apart)
test-readout: Kd (nM)
Please give a number only; it is taken to be in nM.

Challenge: Name the reported Kd value associated with the binder LPYAAGCL [XIP F20A variant (ComS 17-24 with F20A)]
Response given: 2130

Challenge: Name the reported Kd value associated with the binder LPYFAGCL [XIP octapeptide (ComS 17-24, LPYFAGCL) from Streptococcus thermophilus LMD-9]
Response given: 8

Challenge: Name the reported Kd value associated with the binder LPYFAGCA [XIP L24A variant (ComS 17-24 with L24A)]
Response given: 1550

Challenge: Name the reported Kd value associated with the binder LPAFAGCL [XIP Y19A variant (ComS 17-24 with Y19A)]
Response given: 52
